System: Escherichia coli
Measurement protocol: Antibacterial activity against ESBL-producing Escherichia coli ATCC 35218 strains 15 1 to 3 assessed as reduction in bacterial growth incubated for 18 to 20 hrs by CLSI based microdilution method
Format: functional
Protocol conditions: time 18-20 hrs
Mark Criterion met for MIC under 1 mg/L, Criterion not met if at or over.

Does the reported MIC of `CCC(CN)=C1CN(c2nc(Oc3ccc4c(c3)C(=O)NC4)nc3[nH]c4c(NC)cc(F)cc4c23)C1` stay below 1 mg/L?
Criterion not met

Check if MIC falls below 1 mg/L for `CCC(CN)=C1CN(c2nc(Oc3cnc(C4CC4)nc3)nc3[nH]c4c(NC)cc(F)cc4c23)C1` .
Criterion met

Hi there! Is MIC for `CCCC(CN)=C1CN(c2nc(Oc3cnc(C)nc3)nc3[nH]c4c(NC)cc(F)cc4c23)C1` below 1 mg/L, do you know?
Criterion met

Does CCC(CN)=C1CN(c2nc(Oc3cnc(C(C)O)nc3)nc3[nH]c4c(NC)cc(F)cc4c23)C1 (stereo not drawn) have MIC strictly under 1 mg/L?
Criterion met

Strictly below 1 mg/L in MIC? `CCC(CO)=C1CN(c2nc(Oc3cnc(C)nc3)nc3[nH]c4c(NC)cc(F)cc4c23)C1`
Criterion met

Does `CNc1cc(F)cc2c1[nH]c1nc(Oc3cnc(C)nc3)nc(N3CC(=CCN)C3)c12` have MIC strictly under 1 mg/L?
Criterion not met

Hi there! Is MIC for CNc1cc(F)cc2c1[nH]c1nc(Oc3cnc(C)nc3)nc(N3CC4CCNC4C3)c12 (racemic) below 1 mg/L, do you know?
Criterion met

Below 1 mg/L on MIC? Entry `CNc1cc(F)cc2c1[nH]c1nc(Oc3cnc(C)nc3)nc(N3CCC(=CCN)CC3)c12`
Criterion not met

MIC strictly < 1 mg/L for this compound? `CNc1cc(F)cc2c1[nH]c1nc(Oc3cnc(C)nc3)nc(N3CCC(=C(F)CN)CC3)c12`
Criterion met

MIC strictly < 1 mg/L for this compound? `CNc1cc(F)cc2c1[nH]c1nc(Oc3cnc(C)nc3)nc(N3CCC(=C(C)CN)CC3)c12`
Criterion not met

Bench note: check whether `CNc1cc(F)cc2c1[nH]c1nc(Oc3cnc(C)nc3)nc(N3CC/C(=C(\F)CN)C3)c12` shows MIC below 1 mg/L
Criterion met

Quick check: MIC of `CCC(CO)=C1CN(c2nc(Oc3cnc4ccnn4c3)nc3[nH]c4c(NC)cc(F)cc4c23)C1` under 1 mg/L?
Criterion met

Here's an entry: `CCC(CN)=C1CN(c2nc(Sc3ccc(Br)cn3)nc3[nH]c4c(NC)cc(F)cc4c23)C1` . Is its MIC below 1 mg/L?
Criterion not met

Find out if reported MIC for `CCC(CN)=C1CN(c2nc(S(C)(=O)=O)nc3[nH]c4c(NC)cc(F)cc4c23)C1` is less than 1 mg/L
Criterion not met

Say whether its MIC is strictly beneath 1 mg/L. Entry: `CCC(CN)=C1CN(c2nc(C#N)nc3[nH]c4c(NC)cc(F)cc4c23)C1`
Criterion met

Does the reported MIC of `CCC(CO)=C1CN(c2nc(C(=O)Nc3cnc(C)nc3)nc3[nH]c4c(NC)cc(F)cc4c23)C1` stay below 1 mg/L?
Criterion not met

---

Measurement protocol: Metabolic stability in human liver microsome assessed as metabolic bioavailability at 0.1 uM in presence of NADPH incubated upto 60 mins by LC-MS/MS analysis
Assay type: ADME
Protocol conditions: liver microsomes
# label = yes if Fh at 1 h, 0.1 µM >= 50% else no

> print(dat)
                                   molecule  cat
1  CCC(CO)=C1CN(c2nc(Oc3cnc(C)nc3)nc3[nH]c4c(NC)cc(F)cc4c23)C1   no
2  [2H]C([2H])([2H])Nc1cc(F)cc2c1[nH]c1nc(Oc3cnc(C)nc3)nc(N3CC(=C(C)[C@@H](C)N)C3)c12  yes
3  CNc1cc(F)cc2c1[nH]c1nc(Oc3cnc(C)nc3)nc(N3CC(=C(CN)C(C)C)C3)c12   no
4  CNc1cc(F)cc2c1[nH]c1nc(Oc3cnc(C)nc3)nc(N3CC(=C(C)[C@@H](C)N)C3)c12   no
5  CCC(CN)=C1CN(c2nc(Oc3cnc(C)nc3)nc3[nH]c4c(NC)cc(F)cc4c23)C1  yes
6  CCC(CN)=C1CN(c2nc(Oc3cnc(C(C)O)nc3)nc3[nH]c4c(NC)cc(F)cc4c23)C1 (configuration not stated)   no
7  CCC(CN)=C1CN(c2nc(Oc3cnc(CO)nc3)nc3[nH]c4c(NC)cc(F)cc4c23)C1   no
8  CCCC(CN)=C1CN(c2nc(Oc3cnc(C)nc3)nc3[nH]c4c(NC)cc(F)cc4c23)C1   no

Assess whether reported Fh at 1 h, 0.1 µM for [2H]C([2H])([2H])Nc1cc(F)cc2c1[nH]c1nc(Oc3cnc(C)nc3)nc(N3CC(=C(C)C(C)N)C3)c12 (configuration not stated) sits at 50% or higher.
yes

Determine whether this molecule has Fh at 1 h, 0.1 µM no lower than 50%: CNc1cc(F)cc2c1[nH]c1nc(Oc3cnc(C)nc3)nc(N3CC(=C(C)C(C)N)C3)c12 (racemic)
yes
